Quick reference: viability, T/C of the listed items.
- Tested on: 945468-187-T-J2-PDC spheroids viability;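 further: spheroids exposed to compounds for seven days before reading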
- Assay Notes: Anticancer human tumor 945468-187-T-J2-PDC patient-derived rectal carcinoma cell line growth inhibition [PI3K]
- Run Conditions: second compound 0.1 µM; first compound 0.001 µM; active compounds read low; spheroids with HUVEC and MSC

Compound: CC(C)n1nc(-c2ccc3oc(N)nc3c2)c2c(N)ncnc21 + CC(Nc1ccc2c(c1)OCCn1cc(N3C(=O)OCC3C(F)F)nc1-2)C(N)=O
Assay Readout: viability, T/C
Reported Value: 112%
--
Compound: CC(=O)c1c(C)c2cnc(Nc3ccc(N4CCNCC4)cn3)nc2n(C2CCCC2)c1=O + CC(Nc1ccc2c(c1)OCCn1cc(N3C(=O)OCC3C(F)F)nc1-2)C(N)=O
Assay Readout: viability, T/C
Reported Value: 144%
--
Compound: Cn1ncnc1[C@H]1c2n[nH]c(=O)c3cc(F)cc(c23)N[C@@H]1c1ccc(F)cc1 + CC(Nc1ncnc2nc[nH]c12)c1cc2cccc(Cl)c2c(=O)n1-c1ccccc1
Assay Readout: viability, T/C
Reported Value: 90.3%
--
Compound: Cn1ncnc1[C@H]1c2n[nH]c(=O)c3cc(F)cc(c23)N[C@@H]1c1ccc(F)cc1 + Cc1nc(NC(=O)N2CCCC2C(N)=O)sc1-c1ccnc(C(C)(C)C(F)(F)F)c1
Assay Readout: viability, T/C
Reported Value: 109%
--
Compound: Cn1ncnc1[C@H]1c2n[nH]c(=O)c3cc(F)cc(c23)N[C@@H]1c1ccc(F)cc1 + CC(Nc1ccc2c(c1)OCCn1cc(N3C(=O)OCC3C(F)F)nc1-2)C(N)=O
Assay Readout: viability, T/C
Reported Value: 112%

viability, T/C for CC(=O)c1c(C)c2cnc(Nc3ccc(N4CCNCC4)cn3)nc2n(C2CCCC2)c1=O + CC(Nc1ncnc2nc[nH]c12)c1cc2cccc(Cl)c2c(=O)n1-c1ccccc1 ? 101%
